A collection of compounds and their measured IC50
tested on: TGF-β-stimulated SMAD3 phosphorylation in BEAS-2B cells; assay: Cellular ALK5 potency assay, inhibition of TGF-β stimulated pSMAD3 formation in BEAS-2B cells; assay type: cell-based; conditions: Homo sapiens, pSMAD3, TGF-β 10 ng/mL, read-out: BEAS2B pIC50 (converted)
MEASURED_QUANTITY: IC50

{"COMPOUND": "Cc1cccc(-c2nc(Nc3ccnc(Nc4ccc(C(=O)NC5CNC5)cc4)n3)c3cccn3n2)n1", "ENDPOINT_VALUE": "25.1 to 158 nM"}
{"COMPOUND": "Cc1cccc(-c2nccc(Nc3ccnc(Nc4ccc(N5CCOCC5)cc4)n3)n2)n1", "ENDPOINT_VALUE": "≤ 20 nM"}
{"COMPOUND": "CNC(=O)[C@H]1CN(Cc2ccc(Nc3nccc(Nc4ccnc(-c5cccc(C)n5)n4)n3)cc2)CCN1", "ENDPOINT_VALUE": "25.1 to 158 nM"}
{"COMPOUND": "Cc1cccc(-c2nccc(Nc3ccnc(Nc4ccc(CN5CC(C(=O)O)C5)cc4)n3)n2)n1", "ENDPOINT_VALUE": "200 to 1260 nM"}
{"COMPOUND": "Cc1cccc(-c2nccc(Nc3ccnc(Nc4ccc(N5CCCC(C(=O)O[C@H]6CCNC6)C5)cc4)n3)n2)n1 (some centres unmarked)", "ENDPOINT_VALUE": "25.1 to 158 nM"}
{"COMPOUND": "Cc1cccc(-c2nccc(Nc3ccnc(Nc4ccc(C5CCCNC5)cc4)n3)n2)n1 (centres unmarked)", "ENDPOINT_VALUE": "25.1 to 158 nM"}
{"COMPOUND": "Cc1cccc(-c2nccc(Nc3ccnc(Nc4cc(C(=O)OC5CCNCC5)ccn4)n3)n2)n1", "ENDPOINT_VALUE": "200 to 1260 nM"}
{"COMPOUND": "CC(=O)N1CCN(S(=O)(=O)c2ccc(Nc3nccc(Nc4ccnc(-c5cccc(C)n5)n4)n3)cc2)CC1", "ENDPOINT_VALUE": "25.1 to 158 nM"}
{"COMPOUND": "Cc1cccc(-c2nccc(Nc3ccnc(Nc4ccc(C(=O)OC5CCCNCC5)nc4)n3)n2)n1 (centres unmarked)", "ENDPOINT_VALUE": "200 to 1260 nM"}
{"COMPOUND": "Cc1cccc(-c2nccc(Nc3ccnc(Nc4cncc(CN5CC(C(=O)OC6CCNCC6)C5)c4)n3)n2)n1", "ENDPOINT_VALUE": "25.1 to 158 nM"}
{"COMPOUND": "Cc1cccc(-c2nc(Nc3ccnc(Nc4ccc(C(=O)O)cc4)n3)c3cccn3n2)n1", "ENDPOINT_VALUE": "25.1 to 158 nM"}
{"COMPOUND": "Cc1cccc(-c2nccc(Nc3ccnc(Nc4cccc(NC(=O)C5CCNCC5)c4)n3)n2)n1", "ENDPOINT_VALUE": "≤ 20 nM"}
{"COMPOUND": "Cc1cccc(-c2nccc(Nc3ccnc(Nc4ccc(C(=O)OC5CCNCC5)cn4)n3)n2)n1", "ENDPOINT_VALUE": "25.1 to 158 nM"}
{"COMPOUND": "Cc1cccc(-c2nccc(Nc3ccnc(Nc4ccc(-c5c(C)noc5C)cc4)n3)n2)n1", "ENDPOINT_VALUE": "25.1 to 158 nM"}

* * *

A collection of compounds and their measured Ki
biological target: recombinant human ALK5 (TGF-βR1) protein (Homo sapiens); assay: Biochemical ALK5 (TGF-βR1) assay to measure pKi (LANCE Ultra ULight kinase assay); conditions: apparent pKi, converted from pIC50 by Cheng-Prusoff
Sequence (P36897 34-503): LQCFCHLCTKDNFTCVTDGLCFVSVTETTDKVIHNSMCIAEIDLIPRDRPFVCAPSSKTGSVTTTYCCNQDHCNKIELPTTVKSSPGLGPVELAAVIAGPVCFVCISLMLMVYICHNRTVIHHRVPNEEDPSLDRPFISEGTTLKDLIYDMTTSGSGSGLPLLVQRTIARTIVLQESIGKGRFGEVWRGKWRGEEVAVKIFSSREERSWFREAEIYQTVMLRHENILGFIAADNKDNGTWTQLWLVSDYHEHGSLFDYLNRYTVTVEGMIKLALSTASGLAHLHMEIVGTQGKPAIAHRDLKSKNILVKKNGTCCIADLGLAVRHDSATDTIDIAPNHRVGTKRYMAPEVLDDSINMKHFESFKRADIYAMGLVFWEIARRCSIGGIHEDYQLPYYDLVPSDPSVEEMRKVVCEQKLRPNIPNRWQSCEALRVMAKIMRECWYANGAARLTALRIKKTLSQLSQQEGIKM

{"COMPOUND": "Cc1cccc(-c2nccc(Nc3ccnc(Nc4ccc(S(=O)(=O)N5CCN(CCO)CC5)cc4)n3)n2)n1", "TEST_SYSTEM": "recombinant human ALK5 (TGF-βR1) protein (Homo sapiens)", "Ki": "0.0398 to 0.316 nM"}
{"COMPOUND": "Cc1cccc(-c2nccc(Nc3ccnc(Nc4ccc(-c5cnn(CCO)c5)cc4)n3)n2)n1", "TEST_SYSTEM": "recombinant human ALK5 (TGF-βR1) protein (Homo sapiens)", "Ki": "0.398 to 3.16 nM"}
{"COMPOUND": "Cc1cccc(-c2nc(CC(=O)NCC(C)C)cc(Nc3ccnc(Nc4ccc(N5CCNCC5)cc4)n3)n2)n1", "TEST_SYSTEM": "recombinant human ALK5 (TGF-βR1) protein (Homo sapiens)", "Ki": "0.398 to 3.16 nM"}
{"COMPOUND": "Cc1cccc(-c2nccc(Nc3ccnc(Nc4ccc(N5CCN(C)CC5)cn4)n3)n2)n1", "TEST_SYSTEM": "recombinant human ALK5 (TGF-βR1) protein (Homo sapiens)", "Ki": "0.398 to 3.16 nM"}
{"COMPOUND": "Cc1cccc(-c2nccc(Nc3ccnc(Nc4ccc(N5CCNCC5CC(=O)OCC5CNC5)cc4)n3)n2)n1 (stereo not drawn)", "TEST_SYSTEM": "recombinant human ALK5 (TGF-βR1) protein (Homo sapiens)", "Ki": "0.398 to 3.16 nM"}
{"COMPOUND": "Cc1cccc(-c2nccc(Nc3ccnc(Nc4ccc(N5CCCC(C(=O)OC6CCN(C)C6)C5)cc4)n3)n2)n1 (stereo not drawn)", "TEST_SYSTEM": "recombinant human ALK5 (TGF-βR1) protein (Homo sapiens)", "Ki": "0.0398 to 0.316 nM"}

* * *

tested on: TGF-β-stimulated SMAD3 phosphorylation in BEAS-2B cells; test: Cellular ALK5 potency assay, inhibition of TGF-β stimulated pSMAD3 formation in BEAS-2B cells; assay type: cell-based; conditions: Homo sapiens, pSMAD3, TGF-β 10 ng/mL, read-out: BEAS2B pIC50 (converted)

{"STRUCTURE_NOTATION": "Cc1cccc(-c2nccc(Nc3ccnc(Nc4ccc(-c5cnn(CCN)c5)cc4)n3)n2)n1", "TEST_SYSTEM": "TGF-β-stimulated SMAD3 phosphorylation in BEAS-2B cells", "IC50": "25.1 to 158 nM"}
{"STRUCTURE_NOTATION": "Cc1cccc(-c2nccc(Nc3ccnc(Nc4cccc(NC(=O)CC5CNC5)c4)n3)n2)n1", "TEST_SYSTEM": "TGF-β-stimulated SMAD3 phosphorylation in BEAS-2B cells", "IC50": "25.1 to 158 nM"}
{"STRUCTURE_NOTATION": "Cc1cccc(-c2nccc(Nc3ccnc(Nc4cc(N)c5c(c4)OCCO5)n3)n2)n1", "TEST_SYSTEM": "TGF-β-stimulated SMAD3 phosphorylation in BEAS-2B cells", "IC50": "25.1 to 158 nM"}
{"STRUCTURE_NOTATION": "Cc1cccc(-c2nccc(Nc3ccnc(Nc4ccc(C(=O)OC[C@H]5CCCCN5)nc4)n3)n2)n1", "TEST_SYSTEM": "TGF-β-stimulated SMAD3 phosphorylation in BEAS-2B cells", "IC50": "25.1 to 158 nM"}
{"STRUCTURE_NOTATION": "Cc1cccc(-c2nccc(Nc3ccnc(Nc4csc(C(=O)OCCN5CCNCC5)c4)n3)n2)n1", "TEST_SYSTEM": "TGF-β-stimulated SMAD3 phosphorylation in BEAS-2B cells", "IC50": "25.1 to 158 nM"}
{"STRUCTURE_NOTATION": "Cc1cccc(-c2nccc(Nc3ccnc(Nc4ccc(Cl)c(CN5CCNCC5)c4)n3)n2)n1", "TEST_SYSTEM": "TGF-β-stimulated SMAD3 phosphorylation in BEAS-2B cells", "IC50": "25.1 to 158 nM"}
{"STRUCTURE_NOTATION": "Cc1cccc(-c2nccc(Nc3ccnc(Nc4ccc(N5CCC(CNCC(C)C)CC5)cc4)n3)n2)n1", "TEST_SYSTEM": "TGF-β-stimulated SMAD3 phosphorylation in BEAS-2B cells", "IC50": "25.1 to 158 nM"}
{"STRUCTURE_NOTATION": "Cc1cccc(-c2nccc(Nc3ccnc(Nc4csc(NC(=O)C5(CO)CNC5)c4)n3)n2)n1", "TEST_SYSTEM": "TGF-β-stimulated SMAD3 phosphorylation in BEAS-2B cells", "IC50": "200 to 1260 nM"}
{"STRUCTURE_NOTATION": "Cc1cccc(-c2nccc(Nc3ccnc(Nc4csc(C(=O)OC[C@H]5CC[C@@H](N)CC5)c4)n3)n2)n1", "TEST_SYSTEM": "TGF-β-stimulated SMAD3 phosphorylation in BEAS-2B cells", "IC50": "200 to 1260 nM"}
{"STRUCTURE_NOTATION": "Cc1cccc(-c2nccc(Nc3ccnc(Nc4ccc(CN5CCC(O)CC5)cc4)n3)n2)n1", "TEST_SYSTEM": "TGF-β-stimulated SMAD3 phosphorylation in BEAS-2B cells", "IC50": "25.1 to 158 nM"}
{"STRUCTURE_NOTATION": "Cc1cccc(-c2nccc(Nc3ccnc(Nc4cc(C(=O)OC5CCNCC5)cs4)n3)n2)n1", "TEST_SYSTEM": "TGF-β-stimulated SMAD3 phosphorylation in BEAS-2B cells", "IC50": "25.1 to 158 nM"}
{"STRUCTURE_NOTATION": "Cc1cccc(-c2nccc(Nc3ccnc(Nc4csc(C(=O)O[C@H]5CCNC5)c4)n3)n2)n1", "TEST_SYSTEM": "TGF-β-stimulated SMAD3 phosphorylation in BEAS-2B cells", "IC50": "25.1 to 158 nM"}
